- ASSAYED_SYSTEM: C-terminal catalytic domain of human DNMT3A (hDNMT3A) (Homo sapiens)
- Construct: catalytic domain of human DNMT3A (residues 623–908), produced as described; made in house
- TEST: DNMT3A assay (restriction-based fluorescence assay)
- Format: biochemical
- CONDITION: 3.2 µM compound; read-out: % inhibition ± SD hDNMT3A
- Description: DNMT3A enzyme inhibition was adapted from the restriction-based fluorescence assay protocol described in Ceccaldi et al.. […] Specific fluorescent signals were detected with the methylation-sensitive restriction enzyme HpyCH4IV (NEB) as described and measured on a Perkin Elmer Envision detector. […] The formula used to calculate the percentage of inhibition is [(X-Y)/X]×100, where X is the signal determined in the absence of the inhibitor and Y is the signal obtained in the presence of the inhibitor. […]
For each record, write down the corresponding inhibition at 3.2 µM.
A number alone suffices; assume %.

Note to self: inhibition at 3.2 µM recorded for c1ccc(CN2CCC(Nc3nc(N4CCCCCC4)nc4ccccc34)CC2)cc1 [Compound 7] was 7

Note to self: inhibition at 3.2 µM recorded for c1ccc(CN2CCC(Nc3nc(N4CCCCC4)nc4ccccc34)CC2)cc1 [Compound 6] was 11

Note to self: inhibition at 3.2 µM recorded for CC1CCN(c2nc(NC3CCN(Cc4ccccc4)CC3)c3ccccc3n2)CC1 [Compound 8] was 7

Note to self: inhibition at 3.2 µM recorded for CC1CCCCN1c1nc(NC2CCN(Cc3ccccc3)CC2)c2ccccc2n1 (centres unmarked) [Compound 9] was 1

Note to self: inhibition at 3.2 µM recorded for c1ccc(CN2CCC(Nc3nc(N4CCN(c5ccccn5)CC4)nc4ccccc34)CC2)cc1 [Compound 13] was 8

Note to self: inhibition at 3.2 µM recorded for c1ccc(CN2CCC(Nc3nc(N4CCCC4)nc4ccccc34)CC2)cc1 [Compound 10] was 8

Note to self: inhibition at 3.2 µM recorded for CN1CCCN(c2nc(NC3CCN(Cc4ccccc4)CC3)c3ccccc3n2)CC1 [Compound 4] was 16

Note to self: inhibition at 3.2 µM recorded for c1ccc(CN2CCC(Nc3nc(N4CCN(c5ccccc5)CC4)nc4ccccc34)CC2)cc1 [Compound 14] was 13

###

For each record, write down the corresponding inhibition at 32 µM.
- ASSAYED_SYSTEM: C-terminal catalytic domain of human DNMT3A (hDNMT3A) (Homo sapiens, UniProt Q9Y6K1)
- Construct: catalytic domain of human DNMT3A (residues 623–908), produced as described; made in house
- Sequence (Q9Y6K1 627-912): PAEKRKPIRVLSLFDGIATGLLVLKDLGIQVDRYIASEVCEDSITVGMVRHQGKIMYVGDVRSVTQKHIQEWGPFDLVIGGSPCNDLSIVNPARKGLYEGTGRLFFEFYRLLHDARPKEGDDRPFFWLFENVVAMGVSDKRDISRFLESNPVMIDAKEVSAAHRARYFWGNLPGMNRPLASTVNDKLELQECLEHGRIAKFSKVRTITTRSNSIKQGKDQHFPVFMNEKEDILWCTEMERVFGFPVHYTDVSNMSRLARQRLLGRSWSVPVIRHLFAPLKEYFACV
- TEST: DNMT3A assay (restriction-based fluorescence assay)
- Assay type: biochemical
- CONDITION: 32 µM compound; read-out: % inhibition ± SD hDNMT3A
A number alone suffices; assume %.

Note to self: inhibition at 32 µM recorded for c1ccc(CN2CCC(Nc3nc(N4CCN(c5ccccc5)CC4)nc4ccccc34)CC2)cc1 was 54

Note to self: inhibition at 32 µM recorded for CC1CCCCN1c1nc(NC2CCN(Cc3ccccc3)CC2)c2ccccc2n1 (stereo not drawn) was 14

Note to self: inhibition at 32 µM recorded for c1ccc(CN2CCC(Nc3nc(N4CCN(c5ccccn5)CC4)nc4ccccc34)CC2)cc1 was 52
